- TEST SUMMARY: in vivo
- CONDITION: rat, ip, female
OUTCOME MEASURE: LD50 (mg/kg)
Give bare numbers, in mg/kg.

Query: Would you mind telling me what LD50 value was observed for O=C(N[C@H]1C(OC(=O)c2cccnc2)O[C@H](COC(=O)c2cccnc2)[C@@H](OC(=O)c2cccnc2)[C@@H]1OC(=O)c1cccnc1)c1cccnc1 (stereo partly shown) [GLUN, N-nicotinoyl-glucosamine tetranicotinate] ?
Response: 6750

* * *

- Tested on: plasma levels of triglycerides
- TEST SUMMARY: Effect of oral administration on plasma levels of triglycerides in the empty rat
- Type: in vivo, rat (COBS CD (SD) BR male)
- CONDITION: 100 mg/kg oral referred to nicotinic acid, 24 h, empty rat
OUTCOME MEASURE: Percent variations of plasma triglycerides with respect to the controls (%)
Numbers only, in %.

Past entries and their recorded results:
{"columns": ["MOLECULE", "TEST VALUE"],
 "data": [
  ["O=C(N[C@H]1C(OC(=O)c2cccnc2)O[C@H](COC(=O)c2cccnc2)[C@@H](OC(=O)c2cccnc2)[C@@H]1OC(=O)c1cccnc1)c1cccnc1 (stereo partly shown) [GLUN, N-nicotinoyl-glucosamine tetranicotinate]", 3],
  ["O=C(O)c1cccnc1", -16]
]}

Now look at this entry.
Query: Would you mind telling me what Percent variations of plasma triglycerides with respect to the controls value was observed for O=C(OC[C@H](OC(=O)c1cccnc1)[C@@H](OC(=O)c1cccnc1)[C@H](OC(=O)c1cccnc1)[C@@H](COC(=O)c1cccnc1)OC(=O)c1cccnc1)c1cccnc1 [SORBINICATE, D-glucitol hexanicotinate] ?
Response: -25
